Target: 20S proteasome extracted from rat liver, trypsin-like (TL) activity (Rattus norvegicus, UniProt P40112+Q9JHW0)
Construct: 20S proteasome extracted from rat liver
Experiment: Proteasome inhibition, trypsin-like (TL) activity, fluorescent peptide Z-Ala-Arg-Arg-AMC
Conditions: rat liver 20S proteasome, 37° C., 1 h; read-out: T-L (IC50)
MEASURE: IC50

Consider the worked cases shown below.
1. CC(C)C[C@H](NC(=O)[C@H](CC(C)C)NC(=O)[C@H](Cc1ccc2ccccc2c1)NC(=O)c1cnccn1)B1OC2CC3C[C@@H](C3(C)C)[C@]2(C)O1 (stereo partly drawn) | > 20 nM
2. CC(C)C[C@H](NC(=O)[C@H](Cc1c[nH]c2ccccc12)NC(=O)[C@H](Cc1ccccc1)NC(=O)c1cnccn1)B(O)O | > 20 nM

Given the entry CC(C)C[C@H](NC(=O)[C@H](CC(C)C)NC(=O)[C@H](CC(C)C)NC(=O)c1cnccn1)B(O)O , report its measured IC50.
> 20 nM

---

Test system: BGC-823 human gastric cancer cell
Assay: Preliminary anti-tumor screening in vitro, SRB method
Assay type: cell-based
Design: key: +++: inhibition rates at three doses are greater than 50%; ++: inhibition rates at two doses are greater than 50%; +: inhibition rate at one dose is greater than 50%
Conditions: BGC-823, SRB, number of doses with inhibition > 50%
MEASURE: Test results

Here are 5 molecules together with their reported answers.
1. CC(C)C[C@H](NC(=O)[C@H](Cc1ccc2ccccc2c1)NC(=O)[C@H](Cc1ccc2ccccc2c1)NC(=O)c1cnccn1)B(O)O | ++
2. CC(C)C[C@H](NC(=O)[C@H](Cc1ccccc1)NC(=O)[C@H](Cc1ccc(O)cc1)NC(=O)c1cnccn1)B(O)O | +
3. CC(C)C[C@H](NC(=O)[C@H](Cc1ccc2ccccc2c1)NC(=O)[C@H](CC(C)C)NC(=O)c1cnccn1)B(O)O | +++
4. CC(C)C[C@H](NC(=O)[C@H](Cc1ccccc1)NC(=O)[C@H](Cc1ccc2ccccc2c1)NC(=O)c1cnccn1)B(O)O | +++
5. CC(C)C[C@H](NC(=O)[C@H](Cc1ccc2ccccc2c1)NC(=O)[C@H](CC(C)C)NC(=O)c1cnccn1)B1OC2CC3C[C@@H](C3(C)C)[C@]2(C)O1 (stereo partly drawn) | ++

# context switch: different molecule, same Test results
What Test results value was documented for this molecule, CC(C)C[C@H](NC(=O)[C@H](Cc1ccc2ccccc2c1)NC(=O)[C@H](Cc1ccccc1)NC(=O)c1cnccn1)B1OC2CC3C[C@@H](C3(C)C)[C@]2(C)O1 (stereo partly drawn) ?
+++

---

Target: 20S proteasome extracted from rat liver, chymotryptic-like (CT-L) activity (Rattus norvegicus, UniProt P18421+P28075)
Construct: 20S proteasome extracted from rat liver; from tissue; host or cells: rat liver
Assay: Proteasome inhibition, chymotryptic-like (CT-L) activity, fluorescent peptide Suc-leu-leu-Val-Tyr-AMC
Format: biochemical
Details: rat liver 20S proteasome, 37° C., 1 h
pIC50: −log10 of the molar value.
MEASURE: pIC50

1. CC(C)C[C@H](NC(=O)[C@H](Cc1ccccc1)NC(=O)[C@H](Cc1ccc(O)cc1)NC(=O)c1cnccn1)B(O)O [Compound 6d] | 9.58
2. CC(C)C[C@H](NC(=O)[C@H](Cc1ccc2ccccc2c1)NC(=O)[C@H](Cc1ccccc1)NC(=O)c1cnccn1)B1OC2CC3C[C@@H](C3(C)C)[C@]2(C)O1 (stereo partly drawn) [Compound 5g] | 9.35
3. CC(C)C[C@H](NC(=O)[C@H](Cc1ccccc1)NC(=O)[C@H](Cc1ccc2ccccc2c1)NC(=O)c1cnccn1)B1OC2CC3C[C@@H](C3(C)C)[C@]2(C)O1 (stereo partly drawn) [Compound 5b] | 9.66
4. CC(C)C[C@H](NC(=O)[C@H](Cc1ccccc1)NC(=O)[C@H](Cc1ccc2ccccc2c1)NC(=O)c1cnccn1)B(O)O [Compound 6b] | 9.38
5. CC(C)C[C@H](NC(=O)[C@H](Cc1ccc2ccccc2c1)NC(=O)[C@H](CC(C)C)NC(=O)c1cnccn1)B1OC2CC3C[C@@H](C3(C)C)[C@]2(C)O1 (stereo partly drawn) [Compound 5f] | 9.43

(1) CC(C)C[C@H](NC(=O)[C@H](Cc1ccccc1)NC(=O)[C@H](Cc1ccccc1)NC(=O)c1cnccn1)B(O)O [Compound 6a]
(2) CC(C)C[C@H](NC(=O)[C@H](CC(C)C)NC(=O)[C@H](Cc1ccccc1)NC(=O)c1cnccn1)B(O)O [Compound 6k]
(3) CC(C)C[C@H](NC(=O)[C@H](Cc1ccc2ccccc2c1)NC(=O)[C@H](Cc1ccc2ccccc2c1)NC(=O)c1cnccn1)B(O)O [Compound 6h]
Falling order of pIC50, please. Please write the labels in the order that was asked for.
2, 3, 1
(2: 9.76, 3: 9.47, 1: 9.26)

---

Item-by-item account of inhibition at 0.5 µM
Tested on: HL-60 human leukemia cell
Assay: Preliminary anti-tumor screening in vitro, MTT method
Assay type: cell-based
Details: Homo sapiens; HL-60, MTT, 0.5 μM; read-out: Inhibition rate %
Report only the number, with the unit % understood.

Worked examples follow.
1. CC(C)C[C@H](NC(=O)[C@H](Cc1ccccc1)NC(=O)[C@H](Cc1ccc2ccccc2c1)NC(=O)c1cnccn1)B1OC2CC3C[C@@H](C3(C)C)[C@]2(C)O1 (stereo partly drawn) | 88.1
2. CC(C)C[C@H](NC(=O)[C@H](Cc1ccc2ccccc2c1)NC(=O)[C@H](Cc1ccccc1)NC(=O)c1cnccn1)B1OC2CC3C[C@@H](C3(C)C)[C@]2(C)O1 (stereo partly drawn) | 87.5

Now consider the entry below.
Give its inhibition at 0.5 µM value. Item: CC(C)C[C@H](NC(=O)[C@H](Cc1ccc2ccccc2c1)NC(=O)[C@H](CC(C)C)NC(=O)c1cnccn1)B(O)O
87.4

---

Test system: Bel-7402 human hepatocarcinoma cell
Test: Preliminary anti-tumor screening in vitro, SRB method
Type: cell-based
Set-up: key: +++: inhibition rates at three doses are greater than 50%; ++: inhibition rates at two doses are greater than 50%; +: inhibition rate at one dose is greater than 50%
Conditions: Bel-7402, SRB, number of doses with inhibition > 50%
MEASURE: Test results

These recorded examples may help you get a feel for the data.
1. CC(C)C[C@H](NC(=O)[C@H](Cc1ccc2ccccc2c1)NC(=O)[C@H](CC(C)C)NC(=O)c1cnccn1)B1OC2CC3C[C@@H](C3(C)C)[C@]2(C)O1 (stereo partly drawn) | ++
2. CC(C)C[C@H](NC(=O)[C@H](Cc1ccc2ccccc2c1)NC(=O)[C@H](Cc1ccccc1)NC(=O)c1cnccn1)B1OC2CC3C[C@@H](C3(C)C)[C@]2(C)O1 (stereo partly drawn) | ++
3. CC(C)C[C@H](NC(=O)[C@H](CC(C)C)NC(=O)[C@H](Cc1ccc2ccccc2c1)NC(=O)c1cnccn1)B(O)O | ++
4. CC(C)C[C@H](NC(=O)[C@H](Cc1ccc2ccccc2c1)NC(=O)[C@H](Cc1ccc2ccccc2c1)NC(=O)c1cnccn1)B(O)O | +
5. CC(C)C[C@H](NC(=O)[C@H](Cc1ccc2ccccc2c1)NC(=O)[C@H](Cc1ccccc1)NC(=O)c1cnccn1)B(O)O | ++

Field: next molecule
Test results lookup needed for CC(C)C[C@H](NC(=O)[C@H](Cc1ccc2ccccc2c1)NC(=O)[C@H](Cc1ccc2ccccc2c1)NC(=O)c1cnccn1)B1OC2CC3C[C@@H](C3(C)C)[C@]2(C)O1 (stereo partly drawn) , thanks.
++

---

Test system: HL-60 human leukemia cell
Assay: Preliminary anti-tumor screening in vitro, MTT method
Assay type: cell-based
Conditions: Homo sapiens; HL-60, MTT, 0.5 μM; read-out: Inhibition rate %
MEASURE: inhibition at 0.5 µM (%)
Give the value in % but do not write % after it.

1. CC(C)C[C@H](NC(=O)[C@H](Cc1ccccc1)NC(=O)[C@H](Cc1ccc2ccccc2c1)NC(=O)c1cnccn1)B(O)O [Compound 6b] | 87.3
2. CC(C)C[C@H](NC(=O)[C@H](Cc1ccccc1)NC(=O)[C@H](Cc1ccc(O)cc1)NC(=O)c1cnccn1)B(O)O [Compound 6d] | -5.04
3. CC(C)C[C@H](NC(=O)[C@H](Cc1ccc2ccccc2c1)NC(=O)[C@H](Cc1ccc2ccccc2c1)NC(=O)c1cnccn1)B1OC2CC3C[C@@H](C3(C)C)[C@]2(C)O1 (stereo partly drawn) [Compound 5h] | 85.5
4. CC(C)C[C@H](NC(=O)[C@H](CC(C)C)NC(=O)[C@H](Cc1ccc2ccccc2c1)NC(=O)c1cnccn1)B(O)O [Compound 6m] | 85.2
5. CC(C)C[C@H](NC(=O)[C@H](Cc1ccc(O)cc1)NC(=O)[C@H](Cc1ccccc1)NC(=O)c1cnccn1)B(O)O [Compound 6c] | -8.48

Which inhibition at 0.5 µM value belongs to CC(C)C[C@H](NC(=O)[C@H](CC(C)C)NC(=O)[C@H](Cc1ccc2ccccc2c1)NC(=O)c1cnccn1)B1OC2CC3C[C@@H](C3(C)C)[C@]2(C)O1 (stereo partly drawn) [Compound 5m] ?
82.7
